System name: human activated kallikrein enzyme (Homo sapiens)
Sequence (P03952 391-638 limits assumed): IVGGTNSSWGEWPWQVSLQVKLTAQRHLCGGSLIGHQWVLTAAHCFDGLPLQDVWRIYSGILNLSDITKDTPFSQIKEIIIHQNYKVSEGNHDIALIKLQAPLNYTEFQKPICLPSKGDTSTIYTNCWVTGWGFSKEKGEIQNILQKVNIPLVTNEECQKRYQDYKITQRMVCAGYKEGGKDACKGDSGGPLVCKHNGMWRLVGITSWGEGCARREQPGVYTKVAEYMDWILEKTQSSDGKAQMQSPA
Sequence (P03952 20-390 partner limits assumed): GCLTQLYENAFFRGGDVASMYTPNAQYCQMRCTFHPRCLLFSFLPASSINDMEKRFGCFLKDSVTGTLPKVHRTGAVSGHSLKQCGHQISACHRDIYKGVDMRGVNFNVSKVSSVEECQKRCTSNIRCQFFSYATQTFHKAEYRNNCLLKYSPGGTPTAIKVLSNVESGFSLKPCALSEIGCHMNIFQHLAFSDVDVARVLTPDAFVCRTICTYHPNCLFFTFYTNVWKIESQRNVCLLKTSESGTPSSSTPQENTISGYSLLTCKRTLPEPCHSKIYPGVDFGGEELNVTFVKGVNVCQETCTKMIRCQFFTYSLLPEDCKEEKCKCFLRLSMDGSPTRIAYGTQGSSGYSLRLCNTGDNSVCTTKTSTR
Test name: Inhibition of human activated plasma kallikrein, fluorogenic PFR-AMC substrate, 500 pM enzyme format
Type: biochemical
Cond: 500 pM activated kallikrein; 300 μM PFR-AMC; 30 min preincubation; 10 min room temperature; pH 7.5; read-out: Primary Dose Response Assay: Average EC50

[
  {
    "Compound": "Cc1cc2c(N)nccc2c(C)c1CNc1cc(OCc2ccc(CC(=O)N(C)C)cc2)cnn1 [Example I-465]",
    "System name": "human activated kallikrein enzyme (Homo sapiens)",
    "EC50": "< 1 nM"
  },
  {
    "Compound": "Cc1cc2c(N)nccc2c(C)c1CNC(=O)c1cnn(Cc2ccc(CC(=O)N(C)Cc3ccccc3)cc2)c1 [Example 220]",
    "System name": "human activated kallikrein enzyme (Homo sapiens)",
    "EC50": "1 to 10 nM"
  },
  {
    "Compound": "Cc1cc2c(N)nccc2c(C)c1CNc1cc(C(F)c2cn3cc(C4CC4)ccc3n2)ncn1 (stereo not shown) [Example 405]",
    "System name": "human activated kallikrein enzyme (Homo sapiens)",
    "EC50": "< 1 nM"
  },
  {
    "Compound": "Cc1cc2c(N)nccc2c(C)c1CNc1nccc(OCc2cn3cc(C4CC4)ccc3n2)n1 [Example 492]",
    "System name": "human activated kallikrein enzyme (Homo sapiens)",
    "EC50": "1 to 10 nM"
  },
  {
    "Compound": "Cc1cc2c(N)nccc2c(C)c1CNC(=O)c1cnn(Cc2ccc(CC(N)=O)cc2)c1 [Example 231]",
    "System name": "human activated kallikrein enzyme (Homo sapiens)",
    "EC50": "10 to 100 nM"
  },
  {
    "Compound": "Cc1cc2c(N)nccc2c(C)c1CNc1cc(NCc2ccc3nccc(C)c3c2)ncn1 [Example 324]",
    "System name": "human activated kallikrein enzyme (Homo sapiens)",
    "EC50": "1 to 10 nM"
  },
  {
    "Compound": "Cc1cc2c(N)nccc2c(C)c1CNc1nccc2nn(Cc3cn4cc(C5CC5)ccc4n3)cc12 [Example 267]",
    "System name": "human activated kallikrein enzyme (Homo sapiens)",
    "EC50": "< 1 nM"
  },
  {
    "Compound": "Cc1cc2c(N)nccc2c(C)c1CNc1cc(C(O)c2cn3cc(C4CC4)ccc3n2)ncn1 (stereo not shown) [Example 406]",
    "System name": "human activated kallikrein enzyme (Homo sapiens)",
    "EC50": "< 1 nM"
  },
  {
    "Compound": "Cc1cc2c(N)nccc2c(C)c1CNc1cc(OCc2ccc(CCn3cccn3)cc2)cnn1 [Example 278]",
    "System name": "human activated kallikrein enzyme (Homo sapiens)",
    "EC50": "1 to 10 nM"
  },
  {
    "Compound": "Cc1cc2c(N)nccc2c(C)c1CNc1nccc2c1cnn2Cc1cn2cc(C3CC3)ccc2n1 [Example 266]",
    "System name": "human activated kallikrein enzyme (Homo sapiens)",
    "EC50": "100 to 1000 nM"
  },
  {
    "Compound": "Cc1cc2c(N)nccc2c(C)c1CNC(=O)c1cnn(Cc2cnc3ccc(Br)cc3c2)c1 [Example 70]",
    "System name": "human activated kallikrein enzyme (Homo sapiens)",
    "EC50": "< 1 nM"
  },
  {
    "Compound": "Cc1ccc2cc(COc3cnnc(NCc4c(C)cc5c(N)nccc5c4C)c3)ccc2n1 [Example 412]",
    "System name": "human activated kallikrein enzyme (Homo sapiens)",
    "EC50": "< 1 nM"
  },
  {
    "Compound": "Cc1cc2c(N)nccc2c(C)c1CNc1cc(OCc2cn3cc(C4CC4)cnc3n2)nc(CCC(=O)O)n1 [Example 294]",
    "System name": "human activated kallikrein enzyme (Homo sapiens)",
    "EC50": "< 1 nM"
  },
  {
    "Compound": "Cc1cc2c(N)nccc2c(C)c1CNC(=O)c1cn(Cc2ccc(N3CCCC3)nc2)nc1C(F)(F)F [Example 194]",
    "System name": "human activated kallikrein enzyme (Homo sapiens)",
    "EC50": "1 to 10 nM"
  },
  {
    "Compound": "Cc1cc2c(N)nccc2c(C)c1CNC(=O)c1cnn(Cc2ccc(C3CC3)cc2)c1 [Example 29]",
    "System name": "human activated kallikrein enzyme (Homo sapiens)",
    "EC50": "1 to 10 nM"
  },
  {
    "Compound": "Cc1cc2c(N)nccc2c(C)c1CNC(=O)c1cnn(C(CNC(=O)OC(C)(C)C)c2ccccc2)c1 (stereo not shown) [Example 181]",
    "System name": "human activated kallikrein enzyme (Homo sapiens)",
    "EC50": "> 1000 nM"
  }
]
